Tested on: Ascia monuste
Assay: Insecticidal activity against second-instar larval stage of Ascia monuste orseis assessed as mortality at 5 ug/mg applied topically on thoracic tergite after 12 hr relative to control
Type: functional

>  <molecule>
COC(=O)[C@H]1[C@H](/C=C/c2ccc(Cl)cc2)C1(C)C

>  <mortality>
80%

$$$$
>  <molecule>
COC(=O)[C@H]1[C@H](/C=C\c2ccc(F)cc2)C1(C)C

>  <mortality>
67.5%

$$$$
>  <molecule>
CC1(C)C(C=C(Cl)Cl)C1C(=O)OCc1cccc(Oc2ccccc2)c1 (stereo not drawn)

>  <mortality>
100%

$$$$
